Hello, the source for this data is paper PMC3875304, in case you need it.

Below: a set of entries, each annotated with reported EC50.
Target: M1 (Homo sapiens)
Sequence (P11229 whole entry): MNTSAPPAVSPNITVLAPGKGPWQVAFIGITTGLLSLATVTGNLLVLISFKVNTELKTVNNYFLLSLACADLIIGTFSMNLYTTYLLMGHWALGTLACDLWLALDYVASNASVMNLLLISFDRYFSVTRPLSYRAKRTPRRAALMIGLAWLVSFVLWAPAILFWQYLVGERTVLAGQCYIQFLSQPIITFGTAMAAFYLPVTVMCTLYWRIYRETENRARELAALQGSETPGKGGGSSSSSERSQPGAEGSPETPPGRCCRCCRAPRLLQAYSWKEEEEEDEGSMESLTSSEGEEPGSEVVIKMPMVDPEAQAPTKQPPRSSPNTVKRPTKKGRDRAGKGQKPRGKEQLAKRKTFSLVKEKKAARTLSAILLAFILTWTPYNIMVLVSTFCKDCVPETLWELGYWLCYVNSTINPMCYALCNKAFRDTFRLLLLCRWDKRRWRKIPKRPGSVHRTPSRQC
Experiment: Ca2+ mobilization potentiation of ACh ~EC20, M1 CHO cells

Would you please look over these solved cases?
COc1ccc(CN2C(=O)C(=O)c3ccccc32)cc1 ... > 10 µM
COc1cccc(CN2C(=O)C(=O)c3c(Cl)ccc(Cl)c32)c1 ... > 30 µM
COc1ccc(CN2C(=O)C(=O)c3cc(OC(F)(F)F)ccc32)cc1 ... > 30 µM

Then there is this compound:
Prompt: Write down the reported EC50 of `O=C1C(=O)N(Cc2ccccc2C(F)(F)F)c2c(F)cccc21` , test system: M1 (Homo sapiens).
Response: > 30 µM
